Below is a list of entries, each paired with its recorded Kd value.
Target: RAF kinases (Homo sapiens)
Construct: rows headed: RAF1 Kd; other: RAF1; fused on or other part: T7 phage fusion, or DNA tag for PCR detection after expression in HEK-293 cells
Test: Competition binding assay to determine binding constants (Kd) between compounds and RAF kinases
Conditions: RAF1

COc1cc2ncnc(Oc3cc(NC(=O)Nc4cc(C(C)(C)C)on4)ccc3Cl)c2cc1OC = 500 to 1000 nM

Return reported Kd; argument: COc1cc2ncnc(Oc3cccc(NC(=O)Nc4ccc(Cl)cc4)c3)c2cc1OC
< 250 nM

---

Target: RAF kinases (Homo sapiens, UniProt P15056, V600E)
Construct: rows headed: BRAF V600E Kd; other: BRAF V600E; fused on or other part: T7 phage fusion, or DNA tag for PCR detection after expression in HEK-293 cells
Sequence (P15056 whole entry V600E, the tested form may be a part): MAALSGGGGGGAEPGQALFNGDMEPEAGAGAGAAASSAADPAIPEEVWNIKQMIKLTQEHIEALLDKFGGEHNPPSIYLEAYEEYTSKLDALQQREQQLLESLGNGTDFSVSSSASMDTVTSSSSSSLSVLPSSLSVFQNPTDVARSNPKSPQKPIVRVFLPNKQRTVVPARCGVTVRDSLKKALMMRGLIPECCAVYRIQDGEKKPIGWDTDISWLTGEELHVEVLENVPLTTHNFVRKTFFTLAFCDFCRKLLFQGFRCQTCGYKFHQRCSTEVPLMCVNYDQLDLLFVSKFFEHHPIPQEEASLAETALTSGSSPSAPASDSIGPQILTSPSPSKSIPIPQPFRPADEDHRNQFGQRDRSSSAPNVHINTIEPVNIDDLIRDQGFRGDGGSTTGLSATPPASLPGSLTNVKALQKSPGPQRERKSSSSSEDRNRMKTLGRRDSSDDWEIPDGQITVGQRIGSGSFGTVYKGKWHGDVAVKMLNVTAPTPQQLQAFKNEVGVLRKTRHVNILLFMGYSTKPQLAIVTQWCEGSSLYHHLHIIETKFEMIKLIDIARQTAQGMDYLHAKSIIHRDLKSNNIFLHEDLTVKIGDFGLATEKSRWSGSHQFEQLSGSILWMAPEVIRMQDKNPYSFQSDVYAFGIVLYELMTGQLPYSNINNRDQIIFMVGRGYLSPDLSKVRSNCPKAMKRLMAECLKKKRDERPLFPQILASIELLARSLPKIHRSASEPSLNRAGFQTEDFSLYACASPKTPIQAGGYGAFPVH
Assay: Competition binding assay to determine binding constants (Kd) between compounds and RAF kinases
Conditions: BRAF V600E
pKd: −log10 of the molar value.
Catalogue of compounds with associated pKd

COc1cc2ncnc(Oc3cccc(NC(=O)Nc4ccc(Cl)cc4)c3)c2cc1OC = > 6.60

Consider the additional compound presented here.
Given the entry COc1cc2ncnc(Oc3cccc(NC(=O)Nc4cc(C(F)(F)F)n(-c5ccccc5)n4)c3)c2cc1OC , report its measured pKd.
6.30 to 6.60

---

Biological target: RAF kinases (Homo sapiens, UniProt P15056)
Construct: rows headed: BRAF WT Kd; other: BRAF WT; fused on or other part: T7 phage fusion, or DNA tag for PCR detection after expression in HEK-293 cells
Experiment: Competition binding assay to determine binding constants (Kd) between compounds and RAF kinases
Conditions: BRAF WT
Measure: Kd

Param item = COc1cc2ncnc(Oc3cccc(NC(=O)Nc4ccc(Cl)cc4)c3)c2cc1OC ; retrieve measured Kd.
< 250 nM
